System: SK-MEL-28 melanoma
experiment_description: NCI tumour cell line growth inhibition, 48 h
endpoint: log10(TGI) (log10 of the value in µM)

molecule | endpoint | value
CC12CC(Sc3ccccc3N1)c1ccccc1O2 (stereo not given) | log10(TGI) | 1.48
Oc1c(CNCCNCc2cc(Cl)cc(Cc3ccccc3)c2O)cc(Cl)cc1Cc1ccccc1 | log10(TGI) | 1.49
O=[N+]([O-])c1ccc(COc2cccc3cccnc23)cc1 | log10(TGI) | 1.93
C=CCn1c(-c2ccc(Cl)cc2Cl)csc1=Nc1c(C)n(C)n(-c2ccccc2)c1=O | log10(TGI) | 1.43
C/C(=C1\C(=O)C(c2ccccc2)N(c2ccccc2)C1=O)c1ccc(Cl)cc1 (stereo not given) | log10(TGI) | 1.49
COC(=O)c1ccc(C)cc1CC1Cc2c(C)cccc2C1=O (stereo not given) | log10(TGI) | 1.93
C[C@]12CC[C@@H]3c4ccc(O)cc4CC[C@H]3[C@@H]1CC[C@@H]2NS(=O)(=O)c1ccc2ccccc2c1 | log10(TGI) | 0.77
CC(=O)NC1=C(Sc2ccc(Cl)cc2)C(=O)c2ccccc2C1=O | log10(TGI) | 1.08
